# procedure details: change in splice reporter luminescence, either direction, cell-based, HEK293, spliceosome inhibition project, primary screen (AID 1101);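 also: HEK293 cells carrying a splicing-competent luciferase reporter gene; test concentration not given here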
# stated conditions: HEK293 splicing luciferase reporter, 24 h, higher = more signal, called active from +8 up or from −8 down
Here, each record is paired with measured z-score data.
observed property: z-score

{"molecule": "COc1ccc(C(=O)Nc2ccc(CN3C(=O)[C@]4(O[C@H](CC(=O)N5Cc6ccccc6C[C@H]5CO)[C@@H]([Si](C)(C)c5ccc(OC)cc5)[C@@H]4C)c4ccccc43)cc2)cc1", "endpoint value": -1.18}
{"molecule": "COc1cc(OC)c(C(O)C2C=CC3C(=O)N(Cc4ccccc4)C(=O)C3N2n2cnnc2)cc1Br (configuration not stated)", "endpoint value": -1.21}
{"molecule": "CCOC(=O)C1=C[C@@H](C(C)C)N(S(=O)(=O)c2ccc(C)cc2)[C@H]1c1ccc(C(F)(F)F)cc1", "endpoint value": 0.317}
{"molecule": "Cc1ccc(S[C@]2(C(=O)NC(C)C)CC(=O)N(Cc3cc(C(F)(F)F)cc(C(F)(F)F)c3)[C@@H]2c2ccc(CO)cc2)cc1", "endpoint value": 0.681}
{"molecule": "COc1ccc(CCNC(=O)[C@@]2(Cc3ccccc3I)c3ccccc3C(=O)N(C3CCCCC3)[C@H]2c2ccc(CO)cc2)cc1", "endpoint value": -1.17}
{"molecule": "O=C(NCCN1CCOCC1)[C@@H]1c2ccccc2C(=O)N(Cc2ccccc2Cl)[C@H]1c1ccc(CO)cc1", "endpoint value": -0.284}
{"molecule": "O=C1O[C@H](c2ccccc2)[C@H](c2ccccc2)N2[C@H]1[C@@H](C(=O)O)[C@]1(C(=O)Nc3ccc(C#CCCO)cc31)[C@H]2c1ccccc1OCCO", "endpoint value": -0.888}

----------
Here, each record is paired with measured composite z-score data.
# tgt: Dihydroorotate dehydrogenase (quinone), mitochondrial (Plasmodium falciparum (isolate 3D7)) (UniProt Q08210)
# Sequence (Q08210 whole entry, looked up): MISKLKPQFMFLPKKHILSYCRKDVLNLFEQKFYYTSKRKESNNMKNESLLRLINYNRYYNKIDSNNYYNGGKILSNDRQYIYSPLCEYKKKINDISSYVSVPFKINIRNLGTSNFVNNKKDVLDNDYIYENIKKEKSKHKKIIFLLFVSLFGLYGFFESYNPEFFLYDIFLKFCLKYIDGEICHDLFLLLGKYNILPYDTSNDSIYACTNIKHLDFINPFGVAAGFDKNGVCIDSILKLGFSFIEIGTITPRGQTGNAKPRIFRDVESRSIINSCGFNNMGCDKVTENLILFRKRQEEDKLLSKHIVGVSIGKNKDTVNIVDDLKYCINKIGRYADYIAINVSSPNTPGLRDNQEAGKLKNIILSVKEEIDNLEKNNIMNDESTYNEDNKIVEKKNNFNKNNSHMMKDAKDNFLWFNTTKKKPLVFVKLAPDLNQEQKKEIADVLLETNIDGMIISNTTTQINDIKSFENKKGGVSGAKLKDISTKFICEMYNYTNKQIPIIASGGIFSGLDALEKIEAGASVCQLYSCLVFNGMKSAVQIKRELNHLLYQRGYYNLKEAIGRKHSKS
# procedure details: inhibition of P. falciparum DHODH – biochemical, C-terminal His tag, absorbance 600 nm, primary screen (AID 1175);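 also: recombinant parasite enzyme with a five histidine tag at its C terminus; test concentration not given here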
# stated conditions: PfDHODH enzyme, DCIP absorbance 600 nm; higher = more signal, called active from +8 up or from −8 down

{"smi": "NC(=O)[C@@]1(Cc2ccccc2)COC(c2ccc(OCCCO)cc2)=N1", "composite z-score": 1.86}
{"smi": "COC(=O)C(CC#Cc1ccc2c(c1)[C@]1(C(=O)N2)[C@H](c2ccc(O)cc2)N2[C@H](c3ccccc3)[C@H](c3ccccc3)OC(=O)[C@H]2[C@@H]1C(=O)NC[C@H](O)c1ccccc1)C(=O)OC", "composite z-score": -3.93}
{"smi": "CCCN1C(=O)[C@@]2(Cc3ccccc31)N=C(c1ccc(OCCCO)cc1)O[C@H]2c1ccccc1", "composite z-score": -0.172}
{"smi": "NC(=O)NCC#Cc1ccc2c(c1)[C@]1(C(=O)N2)[C@H](c2ccccc2OCCO)N2[C@H](c3ccccc3)[C@H](c3ccccc3)OC(=O)[C@H]2[C@@H]1C(=O)O", "composite z-score": -1.96}

----------
# procedure details: budding yeast growth changes without added modifier – OD600, strain BY4716, 24 h, basal condition, primary screen (AID 1173)
# stated conditions: S. cerevisiae BY4716 growth, OD600, 24 h; higher = more signal, called active from +8 up or from −8 down
Just so you know, the groups by z-score go like this: low-valued: < -1; mid-valued: ≥ -1 and < 0.3; high-valued: ≥ 0.3

{"molecule": "Cc1ccc(S[C@]2(C(=O)NC(C)C)CC(=O)N(Cc3cc(C(F)(F)F)cc(C(F)(F)F)c3)[C@@H]2c2ccc(CO)cc2)cc1", "class assignment": "low-valued"}
{"molecule": "COCCCNC(=O)[C@@H]1c2ccccc2C(=O)N(C(C)C)[C@H]1c1ccc(CO)cc1", "class assignment": "mid-valued"}
{"molecule": "CN(C)C(=O)[C@]1(CCC(=O)OC(C)(C)C)N=C(c2ccc(OCCCO)cc2)O[C@@H]1c1ccccc1CN=[N+]=[N-]", "class assignment": "mid-valued"}
{"molecule": "COc1cc2c(cc1O)C(c1cccs1)N(Cc1cc3c(cc1Br)OCO3)CC2 (stereo not given)", "class assignment": "low-valued"}
{"molecule": "CCCC=C(CCC)[C@@H](NS(=O)(=O)c1ccc(C(F)(F)F)cc1)c1ccccc1", "class assignment": "high-valued"}
{"molecule": "COc1ccc([Si](C)(C)[C@H]2[C@H](CC(=O)N3CCC[C@H]3CO)O[C@@]3(C(=O)N(Cc4ccc(N5CCOC5=O)cc4)c4ccccc43)[C@@H]2C)cc1", "class assignment": "high-valued"}
{"molecule": "Cc1ccccc1C(O)C1C=CC2C(=O)NC(=O)C2N1Nc1ccccn1 (stereo not given)", "class assignment": "high-valued"}
{"molecule": "O=C(O)[C@@H]1C[C@@H]2C(=O)N3CCC[C@H]3C(=O)N2[C@@H]1c1ccc(O)cc1", "class assignment": "low-valued"}
{"molecule": "CCCCCN1CC=CC23O[C@@H]4C=CCCOC(=O)C4[C@H]2C(=O)N(CCCCCCO)[C@@H]3C1=O (stereo not given in full)", "class assignment": "high-valued"}
{"molecule": "COC(=O)C1=CC(CCCO)=CC(c2ccc(CN3CCCC3)cc2)N(Cc2cccc(OC(F)(F)F)c2)C=C1C(=O)OC (stereo not given)", "class assignment": "low-valued"}
{"molecule": "COC(=O)[C@@H]1N=C(c2ccc(OCCCO)cc2)O[C@@H]1C", "class assignment": "mid-valued"}
{"molecule": "COCC(=C=CC[C@H](O)c1ccccc1OCCO)C[C@H](O)c1ccccn1", "class assignment": "mid-valued"}
{"molecule": "COCCOC(=O)N1C(=O)[C@@]2(c3cc(C#CC4=CCCCC4)ccc31)[C@H](c1ccccc1OCCO)N1[C@H](c3ccccc3)[C@H](c3ccccc3)OC(=O)[C@H]1[C@@H]2C(=O)N1CCN(c2ncccn2)CC1", "class assignment": "high-valued"}
{"molecule": "COCCOC(=O)N1C(=O)[C@@]2(c3cc(C#CC4=CCCCC4)ccc31)[C@H](c1ccccc1OCCO)N1[C@H](c3ccccc3)[C@H](c3ccccc3)OC(=O)[C@H]1[C@@H]2C(=O)NC[C@H](O)c1ccccc1", "class assignment": "high-valued"}
{"molecule": "CC(C)C(CO)N1C(=O)[C@@H]2C3C(=O)OCCC/C=C\\[C@H]3OC23C=CCN(c2ccc4ccccc4c2)C(=O)[C@@H]13 (stereo not given in full)", "class assignment": "mid-valued"}
{"molecule": "CCOC(=O)C[C@H]1[C@H](OC(=O)Cc2ccc3c(c2)OCO3)[C@@H](NC(=O)c2ccc3ccccc3n2)c2cc(OCCCO)ccc2N1C(=O)c1ccc2ccccc2n1", "class assignment": "low-valued"}
{"molecule": "C=CC[C@]1(C(=O)N2CCOCC2)COC(c2ccc(OCCCO)cc2)=N1", "class assignment": "low-valued"}
{"molecule": "COc1ccc(C#Cc2ccc3c(c2)[C@]2(C(=O)N3)[C@H](c3ccc(O)cc3)N3[C@H](c4ccccc4)[C@H](c4ccccc4)OC(=O)[C@H]3[C@@H]2C(=O)Nc2nc3ccccc3s2)cc1", "class assignment": "mid-valued"}
{"molecule": "NC(=O)[C@@]1(Cc2ccccc2)COC(c2ccc(OCCCO)cc2)=N1", "class assignment": "high-valued"}
{"molecule": "CC(C)N1CC=CC23O[C@@H]4C=CCCOC(=O)C4[C@H]2C(=O)N(CCCO)[C@@H]3C1=O (stereo not given in full)", "class assignment": "mid-valued"}
{"molecule": "CCCCNC(=O)c1ccc(C#CC(C)(C)C)c(OC(C)=O)c1", "class assignment": "low-valued"}
{"molecule": "C=CCC(OC(C)=O)[C@@H]1[C@@H](N(Cc2ccc(-c3cccc(C(F)(F)F)c3)o2)C(=O)c2ccc(-c3ccccc3)cc2)c2cc(OCCCO)ccc2N1C(=O)Cc1ccc2ccccc2c1 (stereo not given in full)", "class assignment": "high-valued"}
{"molecule": "COc1cc2c(cc1O)C(C1CC1)N(Cc1cccc(OC(F)(F)F)c1)CC2 (stereo not given)", "class assignment": "low-valued"}
